Source: the supplement of paper PMC10849652

- tested-target: YWHAZ (UniProt P63104)
- Sequence (P63104 whole entry, looked up): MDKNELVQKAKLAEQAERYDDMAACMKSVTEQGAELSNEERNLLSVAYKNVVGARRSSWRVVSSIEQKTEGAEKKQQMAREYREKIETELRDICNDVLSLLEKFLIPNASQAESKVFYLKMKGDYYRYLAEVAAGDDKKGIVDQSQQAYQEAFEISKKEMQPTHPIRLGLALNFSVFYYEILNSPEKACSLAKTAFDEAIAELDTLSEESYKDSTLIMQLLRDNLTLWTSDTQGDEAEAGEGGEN
- measurement-description: log2 fold change, soluble protein after heating vs DMSO (PISA); higher = thermal stabilisation; K562 cells, 10 uM, 30 min; active = over 0.2 and 3.5 SD of the protein, either way, in both replicates (recomputed)
The full data set covers some 7,900 targets. This sample favours those with a hit. About 0.6% of all pairs of compound and target were hits.
metric: log2 fold change

1. C[C@@H]1COCCN1c1cc(C2(S(C)(=O)=O)CC2)nc(-c2cccc3[nH]ccc23)n1 ... 0.011
2. CCCS(=O)(=O)Nc1ccc(F)c(C(=O)c2c[nH]c3ncc(-c4ccc(Cl)cc4)cc23)c1F ... 0.037
3. C[C@H](Nc1ncnc2nc[nH]c12)c1cc2cccc(Cl)c2c(=O)n1-c1ccccc1 ... -0.084
4. Cn1cc(-c2ccc3c(c2)CCN3C(=O)Cc2cccc(C(F)(F)F)c2)c2c(N)ncnc21 ... 0.052
5. NC1(Cc2ccc(Cl)cc2)CCN(c2ncnc3[nH]ccc23)CC1 ... 0.059
6. Cc1nc(Nc2n[nH]c3c2CN(C(=O)N[C@H](CN(C)C)c2ccccc2)C3(C)C)c2sccc2n1 ... -0.015
7. Cc1cc(Nc2cc(CN3CCOCC3)c3nc(C)c(Cc4ccc(Cl)cc4F)n3n2)n[nH]1 ... 0.084
8. C=CC(=O)N1CCC[C@@H](n2nc(-c3ccc(Oc4ccccc4)cc3)c3c(N)ncnc32)C1 ... 0.019
